Measured AC50 on Growth hormone secretagogue receptor type 1 (Homo sapiens, UniProt Q92847) follows.
Sequence (Q92847 whole entry): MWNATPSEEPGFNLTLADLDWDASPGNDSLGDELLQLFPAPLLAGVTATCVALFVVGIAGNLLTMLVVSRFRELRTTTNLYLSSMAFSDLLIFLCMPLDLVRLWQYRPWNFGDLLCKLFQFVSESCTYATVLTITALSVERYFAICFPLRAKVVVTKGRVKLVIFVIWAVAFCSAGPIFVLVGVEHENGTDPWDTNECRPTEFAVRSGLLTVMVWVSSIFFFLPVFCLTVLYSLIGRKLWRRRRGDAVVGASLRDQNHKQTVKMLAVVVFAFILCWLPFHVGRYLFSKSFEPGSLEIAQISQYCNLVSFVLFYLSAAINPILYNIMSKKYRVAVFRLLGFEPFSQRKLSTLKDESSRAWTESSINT

{"columns": ["compound", "target-entity", "AC50"],
 "data": [
  ["Cc1ccc(=O)n(-c2ccccc2)c1 [PIRFENIDONE]", "Growth hormone secretagogue receptor type 1 (Homo sapiens, UniProt Q92847)", "> 30 µM"],
  ["O=C(O)c1ccccc1OP(=O)(O)O [FOSFOSAL]", "Growth hormone secretagogue receptor type 1 (Homo sapiens, UniProt Q92847)", "> 30 µM"],
  ["CC(=O)Nc1c(I)c(C(=O)N[C@H]2C(O)O[C@H](CO)[C@@H](O)[C@@H]2O)c(I)c(N(C)C(C)=O)c1I (stereo partly specified) [METRIZAMIDE]", "Growth hormone secretagogue receptor type 1 (Homo sapiens, UniProt Q92847)", "> 10 µM"],
  ["CC[C@@H](CO)NC(=O)[C@@H]1C=C2c3cccc4[nH]cc(c34)C[C@H]2N(C)C1 [METHYLERGONOVINE]", "Growth hormone secretagogue receptor type 1 (Homo sapiens, UniProt Q92847)", "> 30 µM"],
  ["CCCCCCNC(=O)n1cc(F)c(=O)[nH]c1=O [CARMOFUR]", "Growth hormone secretagogue receptor type 1 (Homo sapiens, UniProt Q92847)", "> 30 µM"],
  ["COc1cccc2c1C(=O)c1c(O)c3c(c(O)c1C2=O)C[C@@](O)(C(C)=O)C[C@@H]3O[C@H]1C[C@H](N)[C@H](O)[C@H](C)O1 [DAUNORUBICIN]", "Growth hormone secretagogue receptor type 1 (Homo sapiens, UniProt Q92847)", "5.17 µM"],
  ["CCCCC1(CC)C(=O)NC(=O)NC1=O [BUTETHAL]", "Growth hormone secretagogue receptor type 1 (Homo sapiens, UniProt Q92847)", "> 30 µM"],
  ["[H]/N=C(/N)N[C@H]1[C@H](O)[C@@H](O)[C@H](O[C@@H]2O[C@@H](C)[C@](O)(C=O)[C@H]2O[C@@H]2O[C@@H](CO)[C@H](O)[C@@H](O)[C@@H]2NC)[C@@H](N/C(N)=N\\[H])[C@@H]1O [STREPTOMYCIN]", "Growth hormone secretagogue receptor type 1 (Homo sapiens, UniProt Q92847)", "> 30 µM"],
  ["COc1ccc2c(c1)[C@]13CCCC[C@@H]1[C@H](C2)N(C)CC3 [DEXTROMETHORPHAN]", "Growth hormone secretagogue receptor type 1 (Homo sapiens, UniProt Q92847)", "> 30 µM"],
  ["CC(CCc1ccccc1)NC(C)C(O)c1ccc(O)cc1 (stereo unspecified) [NYLIDRIN]", "Growth hormone secretagogue receptor type 1 (Homo sapiens, UniProt Q92847)", "> 30 µM"],
  ["CC(C)=CCOc1ccc(/C=C/C(=O)c2ccc(OCC=C(C)C)cc2OCC(=O)O)cc1 [SOFALCONE]", "Growth hormone secretagogue receptor type 1 (Homo sapiens, UniProt Q92847)", "> 30 µM"],
  ["CN1[C@@H]2CC[C@H]1C[C@@H](OC(=O)c1c[nH]c3ccccc13)C2 [TROPISETRON]", "Growth hormone secretagogue receptor type 1 (Homo sapiens, UniProt Q92847)", "> 30 µM"],
  ["CO/N=C(\\C(=O)N[C@@H]1C(=O)N2C(C(=O)O)=C(COC(N)=O)CS[C@H]12)c1ccco1 [CEFUROXIME]", "Growth hormone secretagogue receptor type 1 (Homo sapiens, UniProt Q92847)", "> 30 µM"],
  ["O=C(CCCN1CCC(n2c(O)nc3ccccc32)CC1)c1ccc(F)cc1 [BENPERIDOL]", "Growth hormone secretagogue receptor type 1 (Homo sapiens, UniProt Q92847)", "17 µM"],
  ["C[C@H]1C[C@H]2[C@@H]3CCC4=CC(=O)C=C[C@]4(C)[C@@]3(Cl)[C@@H](O)C[C@]2(C)[C@@]1(O)C(=O)CO [BECLOMETHASONE]", "Growth hormone secretagogue receptor type 1 (Homo sapiens, UniProt Q92847)", "> 30 µM"],
  ["CS(=O)(=O)OCCCCOS(C)(=O)=O [BUSULFAN]", "Growth hormone secretagogue receptor type 1 (Homo sapiens, UniProt Q92847)", "> 30 µM"]
]}
